Documented SPOT peptide array binding signal intensity across a set of binders
# target.desc: AgBem1-D1
# assay.name: SPOT peptide array binding signal intensity (averaged, normalized) (arbitrary units (background-subtracted, floor 0; scale differs between SH3 domains)); higher = stronger binding of the SH3 domain to the peptide
I only need the number, thanks.

binder | reported.result
NPNRRAPRRPLSTQH | 136

Exam item: Query: SPOT peptide array binding signal intensity; subject: HVRRSILALPLGVLL
Marked response: 39

Exam item: // query: ALRRRLPVTRSKINW
Marked response: 140

Exam item: Next record, please: LPMNIQPDLPPRKIM
Marked response: 263

Exam item: What do you have for VAPPPLPNRQLPNLD ?
Marked response: 16

Exam item: Now give it for STKKPRPPVKSKPKH too.
Marked response: 1

Exam item: Also check APPPPPRRATPEKKP
Marked response: 24.5

Exam item: Similarly, RRSKSLPITPKSIFN ?
Marked response: 374

Exam item: What do we get for YSRKKLPVVLSKMTL ?
Marked response: 45.5

Exam item: Another binder to look at: GKFIPSRPAPKPPSS
Marked response: 328
